Reported pIC50 values for a set of molecules
Target desc: C-Raf kinase (SEQ. ID NO: 3) (Homo sapiens (Human), UniProt P04049, Y340D/Y341D)
Sequence (P04049 307-648 Y340D/Y341D): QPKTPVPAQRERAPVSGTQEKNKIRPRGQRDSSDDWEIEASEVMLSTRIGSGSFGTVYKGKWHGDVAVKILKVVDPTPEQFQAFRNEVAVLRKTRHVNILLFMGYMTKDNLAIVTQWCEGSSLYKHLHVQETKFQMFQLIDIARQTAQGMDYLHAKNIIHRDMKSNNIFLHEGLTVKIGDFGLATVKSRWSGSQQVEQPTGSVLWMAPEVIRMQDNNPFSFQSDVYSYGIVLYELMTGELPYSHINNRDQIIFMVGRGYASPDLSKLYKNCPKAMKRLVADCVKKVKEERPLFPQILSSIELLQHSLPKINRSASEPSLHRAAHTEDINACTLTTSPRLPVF
Experiment summary: Biochemical Assay for C-Raf (1)
Condition context: Table J, biochemical assay (1); read-out: CRAF (1)
pIC50: −log10 of the molar value.

| Input smiles | pIC50 |
| --- | --- |
| COC(=O)Nc1cc(-c2cccc(-c3cc(NC(=O)Cn4cc(C(C)C)nn4)cnc3C)c2)ccn1 | 6.30 to 7.00 |
| COc1ccc(NC(=O)c2ccnc(C(C)(C)C#N)c2)cc1-c1cccc(-c2cc(NC(=O)C3CC3)ncn2)c1 | ≥ 7.00 |

Record `Cc1ccc(NC(=O)c2ccnc(C(C)(C)F)c2)cc1-c1cncc(-c2cc(N)ncn2)c1` : what is its pIC50 with C-Raf kinase (SEQ. ID NO: 3) (Homo sapiens (Human), UniProt P04049, Y340D/Y341D)?
≥ 7.00

Given the entry `Cc1ccc(NC(=O)c2ccnc(C(C)C)c2)cc1-c1cncc(-c2cc(NC(=O)C3CC3)ncn2)c1` , what pIC50 was observed with C-Raf kinase (SEQ. ID NO: 3) (Homo sapiens (Human), UniProt P04049, Y340D/Y341D)?
≥ 7.00

Data origin, for the record: patent US12319655B2
